Numbers sourced from patent US20150104448A1.

system.tested: T1, Inactive-C1s (Homo sapiens, UniProt P09871)
T1 construct: proenzyme (pro-C1s); also called pro-C1s
T1 sequence (single chain, looked up): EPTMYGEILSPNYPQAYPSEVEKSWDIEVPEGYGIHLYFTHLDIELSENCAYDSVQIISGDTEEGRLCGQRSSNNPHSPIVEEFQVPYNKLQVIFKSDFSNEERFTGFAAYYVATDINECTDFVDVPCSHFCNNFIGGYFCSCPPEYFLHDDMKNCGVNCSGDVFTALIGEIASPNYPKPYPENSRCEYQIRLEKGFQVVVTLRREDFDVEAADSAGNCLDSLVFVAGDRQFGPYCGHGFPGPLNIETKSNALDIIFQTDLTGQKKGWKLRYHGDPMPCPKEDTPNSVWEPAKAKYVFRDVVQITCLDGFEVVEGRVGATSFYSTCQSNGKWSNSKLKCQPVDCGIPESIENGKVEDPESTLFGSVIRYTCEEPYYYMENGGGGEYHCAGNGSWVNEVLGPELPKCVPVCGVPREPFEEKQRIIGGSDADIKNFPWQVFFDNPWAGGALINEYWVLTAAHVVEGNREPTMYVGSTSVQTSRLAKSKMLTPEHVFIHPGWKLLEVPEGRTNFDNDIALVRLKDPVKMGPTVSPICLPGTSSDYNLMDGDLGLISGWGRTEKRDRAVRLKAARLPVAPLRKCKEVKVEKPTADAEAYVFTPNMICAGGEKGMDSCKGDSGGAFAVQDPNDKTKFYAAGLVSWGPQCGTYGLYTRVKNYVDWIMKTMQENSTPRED
method: kinetic binding measurement, method not stated; Table 10, pro-C1s
Let's look at some binders and their measured kon.
Report only the number, with the unit M⁻¹ s⁻¹ understood.

Known kon results, listed for orientation:
- binder: "VH2/Vk1 (antibody, V domains shown, member of group m7; also called VH2/Vκ1; VH variant 2 + Vk variant 1) VH: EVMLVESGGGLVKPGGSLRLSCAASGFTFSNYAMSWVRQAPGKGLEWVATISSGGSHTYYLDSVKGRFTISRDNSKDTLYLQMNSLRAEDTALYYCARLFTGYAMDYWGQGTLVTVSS VL: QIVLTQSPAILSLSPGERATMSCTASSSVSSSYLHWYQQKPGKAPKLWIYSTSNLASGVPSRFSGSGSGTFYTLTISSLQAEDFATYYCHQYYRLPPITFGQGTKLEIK"
  kon [M⁻¹ s⁻¹]: "1.04e+06"
- binder: "VH2/Vk3 (antibody, V domains shown, member of group m7; also called VH2/Vκ3; VH variant 2 + Vk variant 3) VH: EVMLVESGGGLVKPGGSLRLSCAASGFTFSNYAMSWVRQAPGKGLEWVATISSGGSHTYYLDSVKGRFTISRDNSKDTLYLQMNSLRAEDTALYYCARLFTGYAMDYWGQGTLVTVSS VL: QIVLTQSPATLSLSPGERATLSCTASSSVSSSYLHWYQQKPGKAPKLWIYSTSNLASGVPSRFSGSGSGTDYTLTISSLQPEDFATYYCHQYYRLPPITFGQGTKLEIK"
  kon [M⁻¹ s⁻¹]: 968000
- binder: "VH2/Vk2 (antibody, V domains shown, member of group m7; also called VH2/Vκ2; VH variant 2 + Vk variant 2) VH: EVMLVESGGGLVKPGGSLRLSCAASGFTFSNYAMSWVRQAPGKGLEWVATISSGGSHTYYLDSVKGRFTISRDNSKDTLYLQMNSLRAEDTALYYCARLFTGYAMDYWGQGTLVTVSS VL: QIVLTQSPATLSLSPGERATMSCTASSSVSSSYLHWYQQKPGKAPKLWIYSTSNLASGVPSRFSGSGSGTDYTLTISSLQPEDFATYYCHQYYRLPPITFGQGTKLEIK"
  kon [M⁻¹ s⁻¹]: 993000
- binder: "VH1/Vk2 (antibody, V domains shown, member of group m7; also called VH1/Vκ2; VH variant 1 + Vk variant 2) VH: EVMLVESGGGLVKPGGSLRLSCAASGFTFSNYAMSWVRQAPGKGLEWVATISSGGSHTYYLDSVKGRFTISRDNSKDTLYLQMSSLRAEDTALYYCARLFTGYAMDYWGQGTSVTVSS VL: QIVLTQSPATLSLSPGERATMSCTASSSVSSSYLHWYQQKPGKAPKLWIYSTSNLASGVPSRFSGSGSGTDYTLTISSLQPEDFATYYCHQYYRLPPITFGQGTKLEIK"
  kon [M⁻¹ s⁻¹]: "1.09e+06"

Proceed to the following item.
Param item = VH4/Vk1 (antibody, V domains shown, member of group m7; also called VH4/Vκ1; VH variant 4 + Vk variant 1) VH: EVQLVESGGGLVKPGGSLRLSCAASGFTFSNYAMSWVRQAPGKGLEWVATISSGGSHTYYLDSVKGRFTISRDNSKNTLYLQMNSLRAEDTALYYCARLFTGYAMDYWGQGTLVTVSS VL: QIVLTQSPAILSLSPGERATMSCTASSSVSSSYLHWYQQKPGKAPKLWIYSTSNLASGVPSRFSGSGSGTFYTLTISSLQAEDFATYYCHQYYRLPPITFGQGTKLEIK ; retrieve measured kon.
1.1e+06
